- method.summary: The compound was evaluated in vitro for the inhibition of rat leukocyte elastase(RLE)
Measured IC50 of individual entries
Write the figure, then the unit, nothing else.

>  <mol.smiles>
CO[C@@H]1C(=O)N(C(C)=O)[C@@H]1c1ccccc1

>  <IC50>
0.4 µM

$$$$
>  <mol.smiles>
CCCC[C@@H]1C(=O)N(C(C)=O)[C@@H]1C(C)=O

>  <IC50>
37 µM

$$$$

Proceeding to the next molecule to report its IC50.
Req: Give reported IC50 value for "CO[C@@H]1C(=O)N(C(C)=O)[C@@H]1C(C)=O"
Resp: 11 µM

###

- method.summary: The compound was evaluated in vitro for the inhibition of pancreatitic porcine elastase(PPE)
Measured pIC50 of individual entries
Convention used: pIC50 is expressed as -log10 of the molar concentration.

>  <mol.smiles>
CO[C@@H]1C(=O)N(C(C)=O)[C@@H]1c1ccccc1

>  <pIC50>
6.15

$$$$

Proceeding to the next compound to report its pIC50.
Req: Give reported pIC50 value for "CO[C@@H]1C(=O)N(C(C)=O)[C@@H]1C(C)=O"
Resp: 4.59
